assay: LD50 (po) acute lethality; parameters: species or system mice; conditions: mouse, in vivo, mice, printed in binding results table
Recorded LD50 by entry
Metric Name: LD50

> print(dat)
                                   compound      measured
1  CN1CC2=C(CN=C(c3ccccc3Cl)c3cc(Cl)ccc32)C1=O     800 mg/kg
2  CC1NC(=O)C2=C1c1ccc(Cl)cc1C(c1ccccc1Cl)=NC2 (centres unmarked)  > 1000 mg/kg

* * *

Quick reference for IC50 among some molecules
target: 3H-Diazepam binding, rat brain cortical fragments; assay: 3H-Diazepam Binding Assay; details: read-out: IC50 (nM), concentration required to inhibit binding by 50%, Tris buffer, assayed in triplicate
Metric Name: IC50 (nM)

> print(dat)
                                   molecule  uom  measured
1  CCN(CC)CCN1C(=O)CN=C(c2ccccc2F)c2cc(Cl)ccc21 [Flurazepam, reference compound]   nM      15.6
2  CC1NC(=O)C2=C1c1ccc(Cl)cc1C(c1ccccc1Cl)=NC2 (centres unmarked)   nM         1
